- System: Melan-a cells, that is, mouse melanocytes
- test_description: Melanin production inhibition by biarylamide derivatives in melan-a cells (Example 2-2)
- Format: cell-based
- experimental_context: 30 mM derivative, 10 μl per day for 3 days, final concentration 300 μM, absorbance 400 nm
- Method: Melan-a cells, that is, mouse melanocytes, were inoculated onto a 24-well culture plate (10^5 cells), and cultured in RPMI1640 medium including fetal bovine serum (FBS) 10% and 200 nM of phorbol 12-myristate 13-acetate (TPA) for 24 hours. […] The last day of treatment, the cells were washed with Phosphate buffered saline (PBS) three times, lysed with 1 ml of 1M sodium hydroxide (NaOH) solution, and measured using ELISA Leader at absorbance of 400 nm.
observation_type: Reduction rate of melanin(%)
Give the value in % but do not write % after it.

Examples from the recorded data:
molecule="COc1ccc(C(=O)Nc2cccc(C)c2)cc1 [A1/B6, 4-methoxy-N-m-tolylbenzamide]" target_of_assay="Melan-a cells, that is, mouse melanocytes" readout_units=% val=24.3
molecule="Cc1cc(C)cc(NC(=O)c2ccc(C#N)cc2)c1 [A3/B7, 4-cyano-N-(3,5-dimethylphenyl)benzamide]" target_of_assay="Melan-a cells, that is, mouse melanocytes" readout_units=% val=50.6
molecule="Cc1cccc(NC(=O)c2ccc(C#N)cc2)c1 [A1/B7, 4-cyano-N-m-tolylbenzamide]" target_of_assay="Melan-a cells, that is, mouse melanocytes" readout_units=% val=34.2
molecule="COc1cccc(C(=O)Nc2cc(C)cc(C)c2)c1 [A3/B5]" target_of_assay="Melan-a cells, that is, mouse melanocytes" readout_units=% val=48.7
molecule="Cc1ccc(C(=O)Nc2cccc(C)c2)cc1 [A1/B3, 4-methyl-N-m-tolylbenzamide]" target_of_assay="Melan-a cells, that is, mouse melanocytes" readout_units=% val=32.6
molecule="COC(=O)c1ccccc1NC(=O)c1ccc(C)cc1 [A12/B3, methyl 2-(4-methylbenzamido)benzoate]" target_of_assay="Melan-a cells, that is, mouse melanocytes" readout_units=% val=9.4
molecule="CC(=O)c1ccc(NC(=O)c2ccc(C)cc2)cc1 [A10/B3, N-(4-acetylphenyl)-4-methylbenzamide]" target_of_assay="Melan-a cells, that is, mouse melanocytes" readout_units=% val=10.4
molecule="Cc1ccc(C(=O)Nc2cc(C)cc(C)c2)cc1 [A3/B3, N-(3,5-dimethylphenyl)-4-methylbenzamide]" target_of_assay="Melan-a cells, that is, mouse melanocytes" readout_units=% val=35.8
molecule="CCc1ccc(C(=O)Nc2ccccc2C(=O)OC)cc1 [A12/B4, methyl 2-(4-ethylbenzamido)benzoate]" target_of_assay="Melan-a cells, that is, mouse melanocytes" readout_units=% val=9.4
molecule="COc1ccccc1NC(=O)c1ccccc1C [A4/B1, N-(2-Methoxyphenyl)-2-methylbenzamide]" target_of_assay="Melan-a cells, that is, mouse melanocytes" readout_units=% val=17.7

(Q) Entry CCCCOc1ccc(NC(=O)c2ccccc2C)cc1 [A11/B1, N-(4-Butoxyphenyl)-2-methylbenzamide] needs its Reduction rate of melanin(%) filled in; supply it.
(A) 8.9

(Q) Entry CCc1ccc(C(=O)Nc2cccc(C)c2)cc1 [A1/B4, 4-ethyl-N-m-tolylbenzamide] needs its Reduction rate of melanin(%) filled in; supply it.
(A) 23.3

(Q) Entry COc1ccc(OC)c(NC(=O)c2ccccc2C)c1 [A8/B1] needs its Reduction rate of melanin(%) filled in; supply it.
(A) 45.5

Sourced from patent US8552065B2
